Below, each entry is listed with its recorded Kd.
Target: T1, human CLEC12a expressed on transiently transfected HEK 293 cells (human, UniProt Q5QGZ9 1-265)
T1 construct: also called CLL-1; CLL1
T1 sequence: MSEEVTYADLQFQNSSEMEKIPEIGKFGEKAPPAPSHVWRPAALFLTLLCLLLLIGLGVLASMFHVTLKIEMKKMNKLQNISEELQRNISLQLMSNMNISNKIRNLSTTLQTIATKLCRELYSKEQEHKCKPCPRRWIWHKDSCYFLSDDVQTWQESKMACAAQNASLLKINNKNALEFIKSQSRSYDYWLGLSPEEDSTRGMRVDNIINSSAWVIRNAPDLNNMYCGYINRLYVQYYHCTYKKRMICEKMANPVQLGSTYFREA
Test: flow cytometry on HEK 293 cells transfected with human CLEC12a; apparent Kd, one-site fit
// note: answer is a bare numeric in nM

Recorded Kd, per entry:
{"columns": ["BINDER", "VAL"],
 "data": [
  ["ME02 sdAb (VHH ME02 fused to human IgG1 xELL Fc) (Fc fusion, Camelid parental VHH; No linker is stated; also called ME02-IgG1) QVQLQQSGGGLVQVGGSQRLSCAASGRTFEYDDMVWFRQAPGKEREEVAGISWSGGSIYYADSVKGRFSISRDNAKNTVYLEMNRLKPEDTAVYYCNVGSYWGQGTQVTVDKTHTCPPCPAPGGPSVFLFPPKPKDTLMISRTPEVTCVVVDVSHEDPEVKFNWYVDGVEVHNAKTKPREEQYNSTYRVVSVLTVLHQDWLNGKEYKCKVSNKALPAPIEKTISKAKGQPREPQVYTLPPSRDELTKNQVSLTCLVKGFYPSDIAVEWESNGQPENNYKTTPPVLDSDGSFFLYSKLTVDKSRWQQGNVFSCSVMHEALHNHYTQKSLSLSPGK", 1.2],
  ["hzMC06v2 sdAb (VHH hzMC06v2 fused to human IgG1 xELL Fc) (Fc fusion, Humanized version of MC06; No linker is stated; also called hzMC06v2-IgG1) EVQLVESGGGEVQPGGSLRLSCAASGFTFSVYDMNWYRQAPGKEREWVSGISNNGFSTAYAESVKGRFTISRDNAKNTLYLQMSSLRAEDTAVYYCNLDVHGRVGAQGDYWGQGTLVTVDKTHTCPPCPAPGGPSVFLFPPKPKDTLMISRTPEVTCVVVDVSHEDPEVKFNWYVDGVEVHNAKTKPREEQYNSTYRVVSVLTVLHQDWLNGKEYKCKVSNKALPAPIEKTISKAKGQPREPQVYTLPPSRDELTKNQVSLTCLVKGFYPSDIAVEWESNGQPENNYKTTPPVLDSDGSFFLYSKLTVDKSRWQQGNVFSCSVMHEALHNHYTQKSLSLSPGK", 14],
  ["MC06 sdAb (VHH MC06 fused to human IgG1 xELL Fc) (Fc fusion, Camelid parental VHH; No linker is stated; also called MC06-IgG1) QVQLQESGGGLVQPGGSLRLSCAASGFTFSVYDMNWYRQTPGKEREWVAGISNNGFSTAYAGSVKGRFTISRDNAENTVYLQMNSLKSEDTAVYYCNLDVHGRVGAQGDYWGQGTQVTVDKTHTCPPCPAPGGPSVFLFPPKPKDTLMISRTPEVTCVVVDVSHEDPEVKFNWYVDGVEVHNAKTKPREEQYNSTYRVVSVLTVLHQDWLNGKEYKCKVSNKALPAPIEKTISKAKGQPREPQVYTLPPSRDELTKNQVSLTCLVKGFYPSDIAVEWESNGQPENNYKTTPPVLDSDGSFFLYSKLTVDKSRWQQGNVFSCSVMHEALHNHYTQKSLSLSPGK", 1.58],
  ["MH07 sdAb (VHH MH07 fused to human IgG1 xELL Fc) (Fc fusion, Camelid parental VHH; No linker is stated; also called MH07-IgG1) QVQLVQSGGGLVQPGGSLRLSCVASGLLFSIYDMNWYRQAPGKEREWIAGITNNGYSTAYTDSVQGRFTISRDNAKNTVYLQMNSLKPEDTAVYYCHTDEWGREYWGQGTQVTVDKTHTCPPCPAPGGPSVFLFPPKPKDTLMISRTPEVTCVVVDVSHEDPEVKFNWYVDGVEVHNAKTKPREEQYNSTYRVVSVLTVLHQDWLNGKEYKCKVSNKALPAPIEKTISKAKGQPREPQVYTLPPSRDELTKNQVSLTCLVKGFYPSDIAVEWESNGQPENNYKTTPPVLDSDGSFFLYSKLTVDKSRWQQGNVFSCSVMHEALHNHYTQKSLSLSPGK", 0.1],
  ["MB11 sdAb (VHH MB11 fused to human IgG1 xELL Fc) (Fc fusion, Camelid parental VHH; No linker between VHH and Fc is stated; Fc dimers are described only in general terms; also called MB11-IgG1) QVQLQQSGGGLVQPGGSLRLSCVASGFLFSIYDMNWYRQAPGKEREWIAGITNNGYSTAYTDSVQGRFTISRDNAKNTIYLQMTSLKPEDTAVYYCHADLTKCYDGEYAWGQGTQVTVDKTHTCPPCPAPGGPSVFLFPPKPKDTLMISRTPEVTCVVVDVSHEDPEVKFNWYVDGVEVHNAKTKPREEQYNSTYRVVSVLTVLHQDWLNGKEYKCKVSNKALPAPIEKTISKAKGQPREPQVYTLPPSRDELTKNQVSLTCLVKGFYPSDIAVEWESNGQPENNYKTTPPVLDSDGSFFLYSKLTVDKSRWQQGNVFSCSVMHEALHNHYTQKSLSLSPGK", 58.6]
]}

Q: Quick check: Kd of hzMH07v3 sdAb (VHH hzMH07v3 fused to human IgG1 xELL Fc) (Fc fusion, Humanized version of MH07; No linker is stated; also called hzMH07v3-IgG1; haMH07v3) EVQLVESGGGEVQPGGSLRLSCAASGLLFSIYDMNWYRQAPGKEREWVAGITNNGYSTAYAESVKGRFTISRDNAKNTVYLQMSSLRAEDTAVYYCHTDEWGREYWGQGTLVTVDKTHTCPPCPAPGGPSVFLFPPKPKDTLMISRTPEVTCVVVDVSHEDPEVKFNWYVDGVEVHNAKTKPREEQYNSTYRVVSVLTVLHQDWLNGKEYKCKVSNKALPAPIEKTISKAKGQPREPQVYTLPPSRDELTKNQVSLTCLVKGFYPSDIAVEWESNGQPENNYKTTPPVLDSDGSFFLYSKLTVDKSRWQQGNVFSCSVMHEALHNHYTQKSLSLSPGK ?
Ans: 0.28

Q: Quick check: Kd of ME06 sdAb (VHH ME06 fused to human IgG1 xELL Fc) (Fc fusion, Camelid parental VHH; No linker is stated; also called ME06-IgG1) QVQLVQSGGGLVQAGGSLRLSCVASGFTFDDYAIGWFRQAPGKEREGVSCISNSDGSTYYADSVKGRFTISSDNAKNTVYLHVNSLNPEDTAVYYCALREGLPLLLDSLWRQPVEYDYWGQGTQVTVDKTHTCPPCPAPGGPSVFLFPPKPKDTLMISRTPEVTCVVVDVSHEDPEVKFNWYVDGVEVHNAKTKPREEQYNSTYRVVSVLTVLHQDWLNGKEYKCKVSNKALPAPIEKTISKAKGQPREPQVYTLPPSRDELTKNQVSLTCLVKGFYPSDIAVEWESNGQPENNYKTTPPVLDSDGSFFLYSKLTVDKSRWQQGNVFSCSVMHEALHNHYTQKSLSLSPGK ?
Ans: 0.05

Q: Quick check: Kd of hzMC02v6 sdAb (VHH hzMC02v6 fused to human IgG1 xELL Fc) (Fc fusion, Humanized version of MC02; No linker is stated; also called hzMC02v6-IgG1) EVQLVESGGGEVQPGGSLRLSCAASGFTFRINDMGWYRQAPGKECEMVAGISNNGFSTAYAESVKGRFTISRDNAKNTVYLQMSSLRAEDTAVYYCHRTDEGAAHACSRGQGTLVTVDKTHTCPPCPAPGGPSVFLFPPKPKDTLMISRTPEVTCVVVDVSHEDPEVKFNWYVDGVEVHNAKTKPREEQYNSTYRVVSVLTVLHQDWLNGKEYKCKVSNKALPAPIEKTISKAKGQPREPQVYTLPPSRDELTKNQVSLTCLVKGFYPSDIAVEWESNGQPENNYKTTPPVLDSDGSFFLYSKLTVDKSRWQQGNVFSCSVMHEALHNHYTQKSLSLSPGK ?
Ans: 0.35
